Reported GBA EC50 Ratio ([35S]GTPγS binding) (EC50 compound/EC50 PYY(3-36)) values for a set of binders
- subject of test: human Y2 receptor (human) (UniProt P49146)
- Sequence (P49146 whole entry): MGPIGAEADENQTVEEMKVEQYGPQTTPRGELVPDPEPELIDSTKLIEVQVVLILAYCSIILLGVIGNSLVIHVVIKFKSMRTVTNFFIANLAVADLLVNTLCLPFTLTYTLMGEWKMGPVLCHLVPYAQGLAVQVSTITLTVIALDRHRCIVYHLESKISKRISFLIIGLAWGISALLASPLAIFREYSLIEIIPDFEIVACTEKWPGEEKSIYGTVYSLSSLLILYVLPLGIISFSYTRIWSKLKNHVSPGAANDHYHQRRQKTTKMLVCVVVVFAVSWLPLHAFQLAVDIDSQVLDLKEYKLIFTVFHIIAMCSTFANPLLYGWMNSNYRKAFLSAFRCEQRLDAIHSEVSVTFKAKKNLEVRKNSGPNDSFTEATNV
- assay notes: cell-based or functional assay
Non-standard residues stand in square brackets, D forms with d. *: point of attachment. X8 = (2-Hydroxy-1-(hydroxymethyl)ethyl)carbamoyl, O=C(NC(CO)CO)*; (3-carboxypropyl)carbamoyl = O=C(O)CCCNC(=O)*; Arg(Me) = CNC(=N)NCCC[C@H](N)C(=O)O; 4Pal = N[C@@H](Cc1ccncc1)C(=O)O; dHyp = O=C(O)[C@H]1C[C@H](O)CN1; Cha = N[C@@H](CC1CCCCC1)C(=O)O; Iva = CC[C@](C)(N)C(=O)O; Aib = CC(C)(N)C(=O)O
parameter: GBA EC50 Ratio ([35S]GTPγS binding) (EC50 compound/EC50 PYY(3-36))

binder	reported value
{(3-carboxypropyl)carbamoyl}-S[dP][Iva][4Pal][Cha][Aib]NK[Aib]TRQR[Cha]-NH2 (SMILES CC[C@](C)(NC(=O)[C@H]1CCCN1C(=O)[C@H](CO)NC(=O)NCCCC(=O)O)C(=O)N[C@@H](Cc1ccncc1)C(=O)N[C@@H](CC1CCCCC1)C(=O)NC(C)(C)C(=O)N[C@@H](CC(N)=O)C(=O)N[C@@H](CCCCN)C(=O)NC(C)(C)C(=O)N[C@H](C(=O)N[C@@H](CCCNC(=N)N)C(=O)N[C@@H](CCC(N)=O)C(=O)N[C@@H](CCCNC(=N)N)C(=O)N[C@@H](CC1CCCCC1)C(N)=O)[C@@H](C)O) [(3-Carboxypropyl)carbamoyl-[D-Pro24, Iva25, Pya(4)26, Cha27,36, Aib28,31, Lys30]-PYY(23-36)]	1.9
Ac-AS[dP]R[4Pal][Cha][Aib]NK[Aib]TRQR[Cha]-NH2 (SMILES CC(=O)N[C@@H](C)C(=O)N[C@@H](CO)C(=O)N1CCC[C@@H]1C(=O)N[C@@H](CCCNC(=N)N)C(=O)N[C@@H](Cc1ccncc1)C(=O)N[C@@H](CC1CCCCC1)C(=O)NC(C)(C)C(=O)N[C@@H](CC(N)=O)C(=O)N[C@@H](CCCCN)C(=O)NC(C)(C)C(=O)N[C@H](C(=O)N[C@@H](CCCNC(=N)N)C(=O)N[C@@H](CCC(N)=O)C(=O)N[C@@H](CCCNC(=N)N)C(=O)N[C@@H](CC1CCCCC1)C(N)=O)[C@@H](C)O) [Ac-[D-Pro24, Pya(4)26, Cha27,36, Aib28,31, Lys30]-PYY(22-36)]	1.7
Ac-S[dP][Aib][4Pal][Cha][Aib]NK[Aib]TRQR[Cha]-NH2 (SMILES CC(=O)N[C@@H](CO)C(=O)N1CCC[C@@H]1C(=O)NC(C)(C)C(=O)N[C@@H](Cc1ccncc1)C(=O)N[C@@H](CC1CCCCC1)C(=O)NC(C)(C)C(=O)N[C@@H](CC(N)=O)C(=O)N[C@@H](CCCCN)C(=O)NC(C)(C)C(=O)N[C@H](C(=O)N[C@@H](CCCNC(=N)N)C(=O)N[C@@H](CCC(N)=O)C(=O)N[C@@H](CCCNC(=N)N)C(=O)N[C@@H](CC1CCCCC1)C(N)=O)[C@@H](C)O) [Ac-[D-Pro24, Aib25,28,31, Pya(4)26, Cha27,36, Lys30]-PYY(23-36)]	1.7
X8-S[dP][Iva][4Pal][Cha][Aib]NK[Aib]TRQR[Cha]-NH2 (SMILES CC[C@](C)(NC(=O)[C@H]1CCCN1C(=O)[C@H](CO)NC(=O)NC(CO)CO)C(=O)N[C@@H](Cc1ccncc1)C(=O)N[C@@H](CC1CCCCC1)C(=O)NC(C)(C)C(=O)N[C@@H](CC(N)=O)C(=O)N[C@@H](CCCCN)C(=O)NC(C)(C)C(=O)N[C@H](C(=O)N[C@@H](CCCNC(=N)N)C(=O)N[C@@H](CCC(N)=O)C(=O)N[C@@H](CCCNC(=N)N)C(=O)N[C@@H](CC1CCCCC1)C(N)=O)[C@@H](C)O)	2
Ac-R[dP][Iva][4Pal][Cha][Aib]NK[Aib]TRQR[Cha]-NH2 (SMILES CC[C@](C)(NC(=O)[C@H]1CCCN1C(=O)[C@H](CCCNC(=N)N)NC(C)=O)C(=O)N[C@@H](Cc1ccncc1)C(=O)N[C@@H](CC1CCCCC1)C(=O)NC(C)(C)C(=O)N[C@@H](CC(N)=O)C(=O)N[C@@H](CCCCN)C(=O)NC(C)(C)C(=O)N[C@H](C(=O)N[C@@H](CCCNC(=N)N)C(=O)N[C@@H](CCC(N)=O)C(=O)N[C@@H](CCCNC(=N)N)C(=O)N[C@@H](CC1CCCCC1)C(N)=O)[C@@H](C)O) [Ac-[Arg23, D-Pro24, Iva25, Pya(4)26, Cha27,36, Aib28,31, Lys30]-PYY(23-36)]	0.78
Ac-E[dHyp]R[4Pal][Cha][Aib]NK[Aib]TRQR[Cha]-NH2 (SMILES CC(=O)N[C@@H](CCC(=O)O)C(=O)N1C[C@@H](O)C[C@@H]1C(=O)N[C@@H](CCCNC(=N)N)C(=O)N[C@@H](Cc1ccncc1)C(=O)N[C@@H](CC1CCCCC1)C(=O)NC(C)(C)C(=O)N[C@@H](CC(N)=O)C(=O)N[C@@H](CCCCN)C(=O)NC(C)(C)C(=O)N[C@H](C(=O)N[C@@H](CCCNC(=N)N)C(=O)N[C@@H](CCC(N)=O)C(=O)N[C@@H](CCCNC(=N)N)C(=O)N[C@@H](CC1CCCCC1)C(N)=O)[C@@H](C)O) [Ac-[Glu23, D-Hyp24, Pya(4)26, Cha27,36, Aib28,31, Lys30]-PYY(23-36)]	2.2
Ac-S[dP][Arg(Me)][4Pal][Cha][Aib]N[Arg(Me)][Aib]TRQR[Cha]-NH2 (SMILES CNC(=N)NCCC[C@H](NC(=O)[C@H](CC(N)=O)NC(=O)C(C)(C)NC(=O)[C@H](CC1CCCCC1)NC(=O)[C@H](Cc1ccncc1)NC(=O)[C@H](CCCNC(=N)NC)NC(=O)[C@H]1CCCN1C(=O)[C@H](CO)NC(C)=O)C(=O)NC(C)(C)C(=O)N[C@H](C(=O)N[C@@H](CCCNC(=N)N)C(=O)N[C@@H](CCC(N)=O)C(=O)N[C@@H](CCCNC(=N)N)C(=O)N[C@@H](CC1CCCCC1)C(N)=O)[C@@H](C)O) [Ac-[D-Pro24, Arg(Me)25,30, Pya(4)26, Cha27,36, Aib28,31]-PYY(23-36)]	1.5
